# Assay Details: patients with anti-drug antibodies; higher = more immunogenic
Use 60% as the dividing line for patients with anti-drug antibodies, with the line itself on the Fulfilled side and lower values as Not fulfilled.

Take a look at these entries with their results.
| Protein | Class Assignment |
| --- | --- |
| unnamed (protein) chain 1: EVQLQQSGPELEKPGASVKLSCKASGYSFTGYNMNWVKQSHGKSLEWIGHIDPYYGDTSYNQKFRGKATLTVDKSSSTAYMQLKSLTSEDSAVYYCVKGGYYGHWYFDVWGAGTTVTVSS chain 2: DIQMTQSPSSLSASLGERVSLTCRASQDIGSSLNWLQQGPDGTIKRLIYATSSLDSGVPKRFSGSRSGSDYSLTISSLESEDFVDYYCLQYVSSPPTFGAGTKLELK | Not fulfilled |
| unnamed (protein) chain 1: QVQLVESGGGVVQPGRSLRLSCAASGFTFSSYDMHWVRQAPGKGLEWVAVIWYDGSNKYYADSVKGRFTISRDNSKNTLYLQMNSLRAEDTAVYYCARGSGNWGFFDYWGQGTLVTVSS chain 2: DIQMTQSPSSLSASVGDRVTITCRASQGISRWLAWYQQKPEKAPKSLIYAASSLQSGVPSRFSGSGSGTDFTLTISSLQPEDFATYYCQQYNTYPRTFGQGTKVEIK | Not fulfilled |

Request: Could you please find out whether unnamed (protein) chain 1: QVQLVQSGAEVKKPGASVKVSCKASGYTFTSYYMHWVRQAPGQGLEWMGEISPFGGRTNYNEKFKSRVTMTRDTSTSTVYMELSSLRSEDTAVYYCARERPLYASDLWGQGTTVTVSS chain 2: DIQMTQSPSSLSASVGDRVTITCRASQGISSALAWYQQKPGKAPKLLIYSASYRYTGVPSRFSGSGSGTDFTFTISSLQPEDIATYYCQQRYSLWRTFGQGTKLEIK has patients with anti-drug antibodies that meets 60% or exceeds it?
Response: Not fulfilled

Request: Could you please find out whether unnamed (protein) chain 1: QVQLQQSGAELVRPGTSVKVSCKASGYAFTNYLIEWVKQRPGQGLEWIGVINPGSGGTNYNEKFKGKATLTADKSSSTAYMQLSSLTSDDSAVYFCARDGPWFAYWGQGTLVTVSA chain 2: NIVMTQSPKSMSMSVGERVTLTCKASENVVTYVSWYQQKPEQSPKLLIYGASNRYTGVPDRFTGSGSATDFTLTISSVQAEDLADYHCGQGYSYPYTFGGGTKLEIK has patients with anti-drug antibodies that meets 60% or exceeds it?
Response: Fulfilled

Request: Could you please find out whether unnamed (protein) chain 1: QVQLQESGPGLVKPSQTLSLTCTVSGYSISSDFAWNWIRQPPGKGLEWMGYISYSGNTRYQPSLKSRITISRDTSKNQFFLKLNSVTAADTATYYCVTAGRGFPYWGQGTLVTVSS chain 2: DIQMTQSPSSMSVSVGDRVTITCHSSQDINSNIGWLQQKPGKSFKGLIYHGTNLDDGVPSRFSGSGSGTDYTLTISSLQPEDFATYYCVQYAQFPWTFGGGTKLEIK has patients with anti-drug antibodies that meets 60% or exceeds it?
Response: Not fulfilled
